Cited source: ChEMBL document CHEMBL1134952

# TESTED TARGET: Substance-P receptor (Homo sapiens)
# TEST NAME: Binding affinity against human Tachykinin receptor 1 expressed in CHO cells using [3H]-substance P as the radioligand
ENDPOINT NAME: log10 of IC50 (log10 of the value in nM)
Note the log scale: values are log10 of IC50 expressed in nM.

Given item FC(F)(F)c1cc(COCC(c2ccc(Cl)c(Cl)c2)N2CCNCC2)cc(C(F)(F)F)c1 (stereo not given) , the value recorded as its log10 of IC50 is 0.70

Given item Fc1cccc(C(COCc2cc(C(F)(F)F)cc(C(F)(F)F)c2)N2CCNCC2)c1F (stereo not given) , the value recorded as its log10 of IC50 is 0.50

Given item "Clc1cc(Cl)cc(COC[C@@H](c2ccccc2)N2CCNCC2)c1" , the value recorded as its log10 of IC50 is 1.40

Given item Fc1cc(F)cc(COCC(c2ccccc2)N2CCNCC2)c1 (stereo not given) , the value recorded as its log10 of IC50 is 2.30

Given item COc1cccc(C(COCc2cc(C(F)(F)F)cc(C(F)(F)F)c2)N2CCNCC2)c1 (stereo not given) , the value recorded as its log10 of IC50 is 0.00

Given item Fc1ccccc1C(COCc1cc(C(F)(F)F)cc(C(F)(F)F)c1)N1CCNCC1 (stereo not given) , the value recorded as its log10 of IC50 is 0.70

Given item Clc1cccc(COCC(c2ccccc2)N2CCNCC2)c1 (stereo not given) , the value recorded as its log10 of IC50 is 2.60

Given item "Clc1cc(Cl)cc(COC[C@H](c2ccccc2)N2CCNCC2)c1" , the value recorded as its log10 of IC50 is 0.50

Given item CC(C)c1cccc(C(COCc2cc(C(F)(F)F)cc(C(F)(F)F)c2)N2CCNCC2)c1 (stereo not given) , the value recorded as its log10 of IC50 is 1.60

Given item COc1ccccc1C(COCc1cc(C(F)(F)F)cc(C(F)(F)F)c1)N1CCNCC1 (stereo not given) , the value recorded as its log10 of IC50 is 0.80

----------
// pIC50 collected for Sodium-dependent serotonin transporter (Rattus norvegicus, UniProt P31652)
The quantity pIC50 is defined as the negative base-10 logarithm of the molar concentration.

// known answers, use as guide
[[record]]
compound = "Brc1cc(Br)cc(COC[C@@H](c2ccccc2)N2CCNCC2)c1"
number = 7.50

[[record]]
compound = "COc1ccccc1C(COCc1cc(C(F)(F)F)cc(C(F)(F)F)c1)N1CCNCC1 (stereo not drawn)"
number = 6.60


Query compound follows.
Summary: FC(F)(F)c1cc(COCC(c2cccc(Cl)c2)N2CCNCC2)cc(C(F)(F)F)c1 (stereo not drawn) , Sodium-dependent serotonin transporter (Rattus norvegicus, UniProt P31652), pIC50 = 6.60

----------
# TESTED TARGET: Substance-P receptor (Homo sapiens, UniProt P25103)
# Sequence (P25103 whole entry): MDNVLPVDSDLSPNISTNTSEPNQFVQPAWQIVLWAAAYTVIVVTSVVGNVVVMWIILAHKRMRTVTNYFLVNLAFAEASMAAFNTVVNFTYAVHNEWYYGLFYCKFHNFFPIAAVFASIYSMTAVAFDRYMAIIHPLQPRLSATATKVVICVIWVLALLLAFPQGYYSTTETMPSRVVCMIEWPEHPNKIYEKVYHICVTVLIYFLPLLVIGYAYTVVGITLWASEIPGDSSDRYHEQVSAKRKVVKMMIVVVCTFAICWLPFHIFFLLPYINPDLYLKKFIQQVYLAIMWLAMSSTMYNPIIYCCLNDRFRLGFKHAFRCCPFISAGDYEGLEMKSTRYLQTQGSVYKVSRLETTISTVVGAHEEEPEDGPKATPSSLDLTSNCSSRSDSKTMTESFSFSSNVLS
# TEST NAME: Binding affinity against human Tachykinin receptor 1 expressed in CHO cells using [3H]-substance P as the radioligand
# Assay type: cell-based
IC50: recorded values
# unit: nM | format: bare number

// known answers, use as guide
[[record]]
compound = "FC(F)(F)c1cc(COCC(c2ccccc2Cl)N2CCNCC2)cc(C(F)(F)F)c1 (stereo unspecified)"
tested_target = "Substance-P receptor (Homo sapiens, UniProt P25103)"
unit_text = "nM"
number = 1.58

[[record]]
compound = "Brc1cc(Br)cc(COC[C@@H](c2ccccc2)N2CCNCC2)c1"
tested_target = "Substance-P receptor (Homo sapiens, UniProt P25103)"
unit_text = "nM"
number = 12.6

[[record]]
compound = "FC(F)(F)c1cc(COCC(c2ccccc2)N2CCNCC2)cc(C(F)(F)F)c1 (stereo unspecified)"
tested_target = "Substance-P receptor (Homo sapiens, UniProt P25103)"
unit_text = "nM"
number = 5.01


Given item "Brc1cc(Br)cc(COC[C@H](c2ccccc2)N2CCNCC2)c1" , the value recorded as its IC50 is 3.16

Given item Brc1cc(I)cc(COCC(c2ccccc2)N2CCNCC2)c1 (stereo unspecified) , the value recorded as its IC50 is 1.26

Given item Fc1ccc(C(COCc2cc(C(F)(F)F)cc(C(F)(F)F)c2)N2CCNCC2)cc1 (stereo unspecified) , the value recorded as its IC50 is 100
